Each recorded value in this set is attributed to PubChem BioAssay AID1159580.

Assay: chemical genetic growth profiling, strain panel (AID 1159580);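 further: tested at 20 µM; growth read once vehicle control cultures reached saturation at 30 °C; 1 = growth at the plate median or of vehicle wells; lower values mean less growth of the strain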
Details: S. cerevisiae deletion strains, growth OD, locus YNL248C, strain rpa49, stronger effect = lower value
Hit rate of the full screen: of about 5,500 compounds, about 2,000 (36%) were called active. About 18% were inconclusive and are not listed. The list shows a part of the results.
measured.parameter: normalized growth

>>> print(df.to_string())
                                    compound             value_observed
 0  CC12CCC(O)CC1CCc1ccccc12 (stereo unspecified)           0.985 (inactive)
 1                    CNC(=O)Oc1ccccc1OC(C)C           0.979 (inactive)
 2  CC1CC(OC(=O)c2ccccc2O)CC(C)(C)C1 (stereo unspecified)           0.989 (inactive)
 3                                       CON            1.02 (inactive)
 4  Oc1cc2c(cc1O)C(c1ccccc1)CNCC2 (stereo unspecified)            0.93 (inactive)
 5         O=C(/C=C/c1ccc(O)cc1)c1ccc(O)cc1O            1.04 (inactive)
 6               CC(=O)NS(=O)(=O)c1ccc(N)cc1            1.03 (inactive)
 7  CN1CCCCC1c1ccc(-c2cccnc2)nc1 (stereo unspecified)            1.02 (inactive)
 8  O=C(N[C@@H](CO)[C@H](O)c1ccc([N+](=O)[O-])cc1)C(Cl)Cl            1.04 (inactive)
 9  O=C(Nc1ccc([N+](=O)[O-])cc1Cl)c1cc(Cl)ccc1O           0.969 (inactive)
10  OC[C@H]1O[C@@H](Oc2ccc(O)cc2)[C@H](O)[C@@H](O)[C@@H]1O            1.03 (inactive)
11                     CC(=O)c1c(O)cc(O)cc1O            1.01 (inactive)
12  COc1cc(OC)c2c(OC)c(-c3ccc4c(c3)OCO4)c(=O)oc2c1           0.978 (inactive)
13              CNC(=O)N(C)c1nnc(C(C)(C)C)s1           0.995 (inactive)
14                   O=C1NS(=O)(=O)c2ccccc21            1.08 (inactive)
15     CN1CCN(C2=Nc3cc(Cl)ccc3Nc3ccccc32)CC1           0.957 (inactive)
16  CC(=O)OC1CCC2(O)CC1(C)CCC1C2CC1(C)C (stereo unspecified)            1.03 (inactive)
17  CC(C)[C@@H]1CC[C@@H](C)C[C@H]1OC(=O)c1ccccc1           0.986 (inactive)
18                     O=C1C=CC(=O)c2ccccc21            0.0841 (active)
19  NC(=NCCCCCCN=C(N)N=C(N)Nc1ccc(Cl)cc1)N=C(N)Nc1ccc(Cl)cc1             0.075 (active)
20  O=C(c1ccccc1)c1ccc2n1CCC2C(=O)O (stereo unspecified)           0.968 (inactive)
21       O=c1c(O)c(-c2ccccc2)oc2ccc3occc3c12           0.953 (inactive)
22  CC(=O)O[C@@H]1C2CC[C@@H]3C1(C[C@@H](O)[C@@]1(O)[C@@H](C[C@H](O)C1(C)C)[C@]3(C)O)C[C@@]2(C)O (stereo partly specified)            0.98 (inactive)
23  CCCC(=O)Nc1ccc(OCC(O)CNC(C)C)c(C(C)=O)c1 (stereo unspecified)            1.03 (inactive)
24   C/C(=C\CO)CC[C@H](C)CCC[C@H](C)CCCC(C)C  1.13 [resistant] (active)
25  Cc1cc2nc3c(=O)[nH]c(=O)nc-3n(CC(O)C(O)C(O)CO)c2cc1C (stereo unspecified)           0.997 (inactive)
